Provide the recorded IC50 for the entries that follow.
- system tested: DAGLβ (hDAGLβ-FLAG) (Homo sapiens (Human), UniProt Q8NCG7)
- Sequence (Q8NCG7 whole entry): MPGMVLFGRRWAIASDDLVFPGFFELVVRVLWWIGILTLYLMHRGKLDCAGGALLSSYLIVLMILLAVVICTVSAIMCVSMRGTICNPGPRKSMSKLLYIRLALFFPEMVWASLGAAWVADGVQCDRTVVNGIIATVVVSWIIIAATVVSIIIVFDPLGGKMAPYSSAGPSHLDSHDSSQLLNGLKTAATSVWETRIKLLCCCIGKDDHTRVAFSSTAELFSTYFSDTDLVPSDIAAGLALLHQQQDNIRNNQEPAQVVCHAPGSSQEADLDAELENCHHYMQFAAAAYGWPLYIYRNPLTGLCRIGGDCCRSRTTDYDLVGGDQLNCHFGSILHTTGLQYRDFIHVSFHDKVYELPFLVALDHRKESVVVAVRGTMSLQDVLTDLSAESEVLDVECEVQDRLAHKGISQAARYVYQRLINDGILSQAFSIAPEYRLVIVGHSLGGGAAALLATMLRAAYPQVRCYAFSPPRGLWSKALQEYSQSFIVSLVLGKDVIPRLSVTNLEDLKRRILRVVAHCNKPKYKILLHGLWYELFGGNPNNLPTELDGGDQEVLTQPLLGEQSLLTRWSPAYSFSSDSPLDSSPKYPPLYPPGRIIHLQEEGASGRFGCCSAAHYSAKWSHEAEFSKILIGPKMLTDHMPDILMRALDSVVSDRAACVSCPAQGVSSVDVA
- protocol: competitive ABPP, membrane proteome of transfected HEK293T cells
- Type: biochemical
- condition details: read-out: DAGLβ IC50

{"columns": ["compound", "system tested", "IC50"],
 "data": [
  ["O=C(N1CCCCC1Cc1ccccc1)n1cc(-c2ccc(CN3CCCC3)cc2)nn1 (stereo not shown)", "DAGLβ (hDAGLβ-FLAG) (Homo sapiens (Human), UniProt Q8NCG7)", "> 10000 nM"],
  ["N#Cc1ccc(-c2cn(C(=O)N3CCCCC3Cc3ccccc3)nn2)cc1 (stereo not shown)", "DAGLβ (hDAGLβ-FLAG) (Homo sapiens (Human), UniProt Q8NCG7)", "≤ 400 nM"],
  ["COc1cc(Cl)cc(OC)c1-c1ccc(-c2cn(C(=O)N3CCCCC3Cc3ccncc3)nn2)cc1 (stereo not shown)", "DAGLβ (hDAGLβ-FLAG) (Homo sapiens (Human), UniProt Q8NCG7)", "2000 to 10000 nM"]
]}

// for each compound below, give its IC50
1. C#CCO[C@@H]1CC[C@H](Cc2ccccc2)N(C(=O)n2ncc(C(O)(c3ccc(F)cc3)c3ccc(F)cc3)n2)C1
2. COc1cc(OC)c(-c2cn(C(=O)N3CCCCC3Cc3ccccc3)nn2)c(OC)c1 (stereo not shown)
3. CN(C)Cc1ccc(-c2cn(C(=O)N3CCCCC3Cc3ccccc3)nn2)cc1 (stereo not shown)
4. O=C(N(CCc1ccccc1)C1CC1)n1cc(-c2ccc(OC(F)(F)F)cc2)nn1
5. O=C(N1CCCCC1Cc1ccncc1)n1cc(-c2ccc(-c3ccccc3)cc2)nn1 (stereo not shown)
6. O=C(N1CCCCC1Cc1ccccc1)n1cc(-c2ccc([N+](=O)[O-])cc2)nn1 (stereo not shown)
7. COc1cncc(OC)c1-c1ccc(-c2cnn(C(=O)N3CCCCC3Cc3ccccc3)n2)cc1 (stereo not shown)
8. CC(C)(C)CN(CCc1ccccc1)C(=O)n1cc(-c2ccc(OC(F)(F)F)cc2)nn1

["≤ 400 nM", "2000 to 10000 nM", "2000 to 10000 nM", "≤ 400 nM", "≤ 400 nM", "≤ 400 nM", "> 10000 nM", "≤ 400 nM"]

// for each compound below, give its IC50
1. O=C(N1CCCCC1Cc1ccccc1)n1cc(-c2ccc(-c3ccccn3)cc2)nn1 (stereo not shown)
2. O=C(N1CCCCC1Cc1ccccc1)n1cc(-c2ccc(-c3c(F)cncc3F)cc2)nn1 (stereo not shown)
3. COc1cc(OC)c(-c2ccc(-c3cn(C(=O)N4CCCCC4Cc4ccccc4)nn3)cc2)c(OC)c1 (stereo not shown)
4. CCC(CC)CN(CCc1cccnc1)C(=O)n1cc(-c2ccc(OC(F)(F)F)cc2)nn1
5. CC(C)(C)CN(CCc1cccnc1)C(=O)n1cc(-c2ccc(OC(F)(F)F)cc2)nn1

1: 2000 to 10000 nM; 2: 400 to 2000 nM; 3: ≤ 400 nM; 4: ≤ 400 nM; 5: ≤ 400 nM

---

- system tested: DAGLα (Mus musculus (Mouse))
- Sequence (Q6WQJ1 whole entry): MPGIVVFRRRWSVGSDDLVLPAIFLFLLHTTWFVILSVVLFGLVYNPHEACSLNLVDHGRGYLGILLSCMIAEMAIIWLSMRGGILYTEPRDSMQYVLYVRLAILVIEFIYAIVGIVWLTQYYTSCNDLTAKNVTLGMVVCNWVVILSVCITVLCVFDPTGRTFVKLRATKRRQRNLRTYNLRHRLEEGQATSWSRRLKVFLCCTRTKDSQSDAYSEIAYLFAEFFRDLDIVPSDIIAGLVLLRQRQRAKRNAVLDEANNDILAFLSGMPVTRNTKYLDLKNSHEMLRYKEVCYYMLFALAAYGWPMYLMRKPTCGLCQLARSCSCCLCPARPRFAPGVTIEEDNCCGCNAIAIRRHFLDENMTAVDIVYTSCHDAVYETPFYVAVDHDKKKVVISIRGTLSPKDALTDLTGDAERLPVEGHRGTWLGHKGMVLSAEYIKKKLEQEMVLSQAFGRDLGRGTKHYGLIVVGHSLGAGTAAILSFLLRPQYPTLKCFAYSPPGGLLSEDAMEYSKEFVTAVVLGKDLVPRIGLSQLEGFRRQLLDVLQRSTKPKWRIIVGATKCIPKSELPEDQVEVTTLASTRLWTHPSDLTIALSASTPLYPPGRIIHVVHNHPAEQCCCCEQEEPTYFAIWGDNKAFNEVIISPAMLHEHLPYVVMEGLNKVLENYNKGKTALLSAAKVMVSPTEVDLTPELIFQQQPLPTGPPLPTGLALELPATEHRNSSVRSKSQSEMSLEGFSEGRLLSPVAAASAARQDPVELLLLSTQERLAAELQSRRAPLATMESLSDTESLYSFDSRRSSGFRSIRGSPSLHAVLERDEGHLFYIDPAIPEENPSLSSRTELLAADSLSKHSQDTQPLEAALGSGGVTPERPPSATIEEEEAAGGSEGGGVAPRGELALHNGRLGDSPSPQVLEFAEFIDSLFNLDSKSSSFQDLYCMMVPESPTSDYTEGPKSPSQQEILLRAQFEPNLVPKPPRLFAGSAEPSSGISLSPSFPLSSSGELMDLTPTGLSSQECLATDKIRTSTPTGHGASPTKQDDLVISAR
- protocol: gel-based ABPP of mouse brain proteome, endogenous DAGLs, probe compound 58 and HT-01
- Format: biochemical
- condition details: mouse brain proteome, probes 1 μM, 30 min; read-out: IC50, DAGLα labeling by compound 58 and HT-01
pIC50: −log10 of the molar value.
assay readout: pIC50

Given CC(C)(C)OC(=O)N1CCN(C(=O)n2cc(-c3ccc(OC(F)(F)F)cc3)nn2)C(Cc2ccccc2)C1 (stereo not shown) , respond with its pIC50.
8.92 to 9.30
